# test: SMARCA2 (BRM) function activators, primary screen, cell-based, luminescence, high throughput (AID 652017);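 note: 0% = vehicle wells and 100% = reference activator wells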
# stated.conditions: MG213 cells, MMTV-luciferase reporter, dexamethasone, overnight; at 9.1 µM; hits give high values
In all, about 370,000 compounds went through this assay and about 3,800 (1%) were called active. This is one part of a sample in which actives are shown more often than they occur.
measurement.kind: activation (%)
Entry rule: numbers only, all in %.

// query Supply measured activation of "Cc1ccc(-n2cc3ccc([N+](=O)[O-])cc3n2)cc1" in your reply.
// result 3.85

// query Supply measured activation of "C=CCN1C(=O)[C@H](CC(=O)N2CCN(C(=O)OCC)CC2)[C@@]2(C(=O)OCC)CCCC=C12" in your reply.
// result -0.21

// query Supply measured activation of "C[C@@H]1COc2cccc(N3CCCC3)c2S(=O)(=O)N1C" in your reply.
// result -1.71

====

Kindly supply the reported activation values for the records listed here.
# test: SMARCA2 (BRM) function activators, primary screen, cell-based, luminescence, high throughput (AID 652017);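 note: 0% = vehicle wells and 100% = reference activator wells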
# stated.conditions: MG213 cells, MMTV-luciferase reporter, dexamethasone, overnight; at 9.1 µM; hits give high values
Among all 370,000 compounds or so, about 3,800 (1%) were called active. The sample holds actives, similar compounds and a random draw of the others, so the mix is not that of the screen.
Entry rule: numbers only, all in %.

// query Supply measured activation of "Cc1cccc(C(=O)N2CCN(S(=O)(=O)N3CCCCC3)CC2)c1" in your reply.
// result 3.31

// query Supply measured activation of "CN(C(=O)c1cccc(NC(=O)Cc2cccc([N+](=O)[O-])c2)c1)C1CCCCC1" in your reply.
// result -2.39

// query Supply measured activation of "Nn1c(SCC(=O)N2c3ccccc3Sc3ccccc32)nnc1-c1n[nH]c2c1CCC2" in your reply.
// result -2.45

// query Supply measured activation of COCC(=O)Nc1c(I)c(C(=O)NCC(O)CO)c(I)c(C(=O)N(C)CC(O)CO)c1I (stereo not drawn) in your reply.
// result -1.43

// query Supply measured activation of "COc1ccc(Cl)cc1NC(=O)CN(C)CC(=O)Nc1ccc2c(c1)OCO2" in your reply.
// result -3.2

// query Supply measured activation of Cc1cc(C(=O)NNC(=S)NC(C)c2ccccc2)cs1 (stereo not drawn) in your reply.
// result -0.96

// query Supply measured activation of "CN(C)[C@H]1CCN(c2cccc3c2S(=O)(=O)N2CC[C@H](C2)O3)C1" in your reply.
// result 0.57

// query Supply measured activation of "CCN(CC)CCOC(=O)c1ccc(NC(=O)CNC(=O)c2ccccc2)cc1" in your reply.
// result -3.5

// query Supply measured activation of "NC1=NN(c2cccc(C(=O)O)c2)C(=O)C1" in your reply.
// result -1.73

// query Supply measured activation of "COc1c(O)cc2oc(-c3ccc(O)c(O)c3)cc(=O)c2c1O" in your reply.
// result 8.25

// query Supply measured activation of Cc1cc(Cl)ccc1C(=O)C1CCCN(C(=O)c2ccc3c(c2)OCO3)C1 (stereo not drawn) in your reply.
// result 0.89

// query Supply measured activation of "COC(=O)c1ccc(/C=C/c2c(-c3ccc(OC)cc3)sc3ccccc23)cc1" in your reply.
// result 3.05

// query Supply measured activation of "OC(CCl)CCl" in your reply.
// result -4.79
